# Study system: F508delCFTR (Homo sapiens, UniProt P13569, DEL508-508)
# Construct: expressed in transfected cells; host or cells: CFBE41o- human lung-derived epithelial cells (CFBE4lo-F508delCFTR-HRP), doxycycline-inducible
# Sequence (P13569 with tags, fused parts or gaps DEL508-508): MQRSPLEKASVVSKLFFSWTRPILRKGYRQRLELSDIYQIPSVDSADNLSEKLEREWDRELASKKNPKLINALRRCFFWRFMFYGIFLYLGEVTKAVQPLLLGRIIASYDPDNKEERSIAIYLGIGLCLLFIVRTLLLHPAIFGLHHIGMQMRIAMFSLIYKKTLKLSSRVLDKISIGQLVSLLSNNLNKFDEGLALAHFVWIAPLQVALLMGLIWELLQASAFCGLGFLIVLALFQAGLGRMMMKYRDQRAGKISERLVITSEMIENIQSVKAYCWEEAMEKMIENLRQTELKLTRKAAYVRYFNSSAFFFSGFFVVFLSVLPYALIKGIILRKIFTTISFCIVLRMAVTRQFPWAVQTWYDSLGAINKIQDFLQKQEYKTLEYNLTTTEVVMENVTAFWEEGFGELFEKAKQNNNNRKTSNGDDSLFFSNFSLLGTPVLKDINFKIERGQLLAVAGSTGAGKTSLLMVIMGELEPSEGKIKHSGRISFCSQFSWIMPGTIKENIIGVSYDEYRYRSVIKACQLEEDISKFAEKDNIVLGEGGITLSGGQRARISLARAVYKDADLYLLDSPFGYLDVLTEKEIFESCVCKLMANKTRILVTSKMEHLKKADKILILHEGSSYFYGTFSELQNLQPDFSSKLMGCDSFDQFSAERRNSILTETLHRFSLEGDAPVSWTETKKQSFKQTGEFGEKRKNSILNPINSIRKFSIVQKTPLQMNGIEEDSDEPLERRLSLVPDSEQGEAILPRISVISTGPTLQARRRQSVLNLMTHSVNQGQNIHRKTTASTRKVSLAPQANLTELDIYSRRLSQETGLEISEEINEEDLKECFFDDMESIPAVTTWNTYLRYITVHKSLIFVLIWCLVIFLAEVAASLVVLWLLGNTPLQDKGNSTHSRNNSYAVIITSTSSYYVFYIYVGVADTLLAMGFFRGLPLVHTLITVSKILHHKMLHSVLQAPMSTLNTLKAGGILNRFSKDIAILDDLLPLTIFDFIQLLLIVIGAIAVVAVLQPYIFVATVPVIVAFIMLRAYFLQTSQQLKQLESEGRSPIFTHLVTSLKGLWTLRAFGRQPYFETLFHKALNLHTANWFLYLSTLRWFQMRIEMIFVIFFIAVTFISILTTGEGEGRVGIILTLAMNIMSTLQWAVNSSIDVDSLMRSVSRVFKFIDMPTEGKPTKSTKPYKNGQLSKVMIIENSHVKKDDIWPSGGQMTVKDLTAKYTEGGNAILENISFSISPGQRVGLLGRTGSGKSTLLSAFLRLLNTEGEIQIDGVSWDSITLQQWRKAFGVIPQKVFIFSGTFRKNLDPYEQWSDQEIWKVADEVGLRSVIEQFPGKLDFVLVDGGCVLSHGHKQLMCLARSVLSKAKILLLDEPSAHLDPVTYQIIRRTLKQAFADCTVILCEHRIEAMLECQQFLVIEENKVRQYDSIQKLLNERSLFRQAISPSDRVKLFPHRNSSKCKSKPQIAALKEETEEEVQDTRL
# Procedure summary: Cell Surface Expression-Horse Radish Peroxidase (CSE-HRP) Assay
# Assay type: cell-based
# Reported conditions: test compound without co-corrector; read-out: EC50 (without co-corrector)
# Method: Cell Surface Expression-Horse Radish Peroxidase (CSE-HRP) Assay The development was achieved by expressing the F508delCFTR mutation along with a horseradish peroxidase (HRP) in the fourth exofacial loop, and then measuring the HRP activity using luminescence readout from these cells, CFBE4lo-F508delCFTR-HRP, that were incubated overnight with the test corrector compounds, either without or with the co-corrector. […] The raw counts from the experiment were analyzed using Accelrys® Assay Explorer v3.3. […]
pEC50: −log10 of the molar value.
List of pEC50 values.

Molecule	Study system	pEC50
COc1ccc(C(C)(C)C)cc1CN[C@H]1[C@H](C(C)(C)C)[C@@H](C(=O)O)N(C(=O)C2CCCCO2)[C@H]1c1cccnc1OC(F)F (single isomer, unassigned) [II-489]	F508delCFTR (Homo sapiens, UniProt P13569, DEL508-508)	5.00 to 6.00
COc1ncc(Br)cc1CN[C@H]1[C@H](C(C)(C)C)[C@@H](C(=O)O)N(C(=O)[C@@H]2CCCO2)[C@H]1c1ccccc1C(C)C	F508delCFTR (Homo sapiens, UniProt P13569, DEL508-508)	5.00 to 6.00
COc1cnc(-c2ccccc2F)cc1CN[C@H]1[C@H](C(C)(C)C)[C@@H](C(=O)O)N(C(=O)C2CCCCC2)[C@H]1c1ccccc1	F508delCFTR (Homo sapiens, UniProt P13569, DEL508-508)	5.00 to 6.00

Where do the numbers come from? From patent US20180099931A1.
